# system: Alpha-2C adrenergic receptor (Homo sapiens) (UniProt P18825)
# Sequence (P18825 whole entry, looked up): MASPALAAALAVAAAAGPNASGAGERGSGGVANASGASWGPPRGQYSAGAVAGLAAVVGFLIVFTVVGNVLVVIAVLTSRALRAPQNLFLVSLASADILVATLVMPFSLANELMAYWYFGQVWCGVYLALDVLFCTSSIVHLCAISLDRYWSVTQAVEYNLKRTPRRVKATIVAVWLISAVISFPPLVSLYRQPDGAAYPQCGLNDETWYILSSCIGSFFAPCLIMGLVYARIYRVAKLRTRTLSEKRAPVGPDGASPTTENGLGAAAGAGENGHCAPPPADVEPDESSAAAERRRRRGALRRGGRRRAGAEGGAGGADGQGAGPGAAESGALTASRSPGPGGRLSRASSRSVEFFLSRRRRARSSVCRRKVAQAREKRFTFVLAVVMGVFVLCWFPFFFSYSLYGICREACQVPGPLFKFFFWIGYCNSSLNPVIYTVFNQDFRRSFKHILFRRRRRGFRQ
# experiment: compounds altering alpha2C-coupled GIRK flux – cell-based, HEK293 alpha2C/GIRK1/2, thallium flux, primary screen (AID 624);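 further: slope of fluorescence ratio to pre-addition baseline per second over 15 to 24 s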
# test.settings: thallium flux BTC fluorescence, at 10 µM, actives lie on both sides
Entries whose slope is below 0.005 take label 1; entries at or above 0.005 take label 0.

> print(dat)
                                   compound                                    system  assigned.category
1        CCCCC1(CN2CCCC2=O)C(=O)NC(=O)NC1=O  Alpha-2C adrenergic receptor (Homo sapiens) (UniProt P18825)            label 0
2  Cc1cccc(-n2c(O)c(C=NCCCN3CCOCC3)c(=O)[nH]c2=O)c1C  Alpha-2C adrenergic receptor (Homo sapiens) (UniProt P18825)            label 0
3  O=c1[nH]c(=O)n(Cc2ccco2)c(O)c1C=NCCCn1ccnc1  Alpha-2C adrenergic receptor (Homo sapiens) (UniProt P18825)            label 0
4  CC1=NOC2(C)Nc3ncnn3C(c3ccccc3)C12 (stereo not drawn)  Alpha-2C adrenergic receptor (Homo sapiens) (UniProt P18825)            label 0
5  CCCCn1c(C)c(C(=O)OCC)c2c(CN3CCOCC3)c(O)ccc21  Alpha-2C adrenergic receptor (Homo sapiens) (UniProt P18825)            label 1
6  O=C(CCCN1CCC2(CC1)C(=O)NCN2c1ccccc1)c1ccc(F)cc1  Alpha-2C adrenergic receptor (Homo sapiens) (UniProt P18825)            label 1

----------
Items are presented alongside their recorded nuclei count.
# experiment: reduction of polyQ htt aggregates in cells – imaging, exon1htt(103Q)mCFP cells, high-content imaging, primary screen (AID 483);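 further: compound exposure lasted 3 days before fixation; percent of the per-plate median nuclei count of sample wells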
# test.settings: exon1htt(103Q)mCFP cell line, aggregate imaging, at 2 µM; measured here: cell count, toxicity
experimental.endpoint: nuclei count (%)

> print(dat)
                                    compound  experimental.endpoint  unit.of.measurement  assay.result
 1  Cn1c(=O)cc(SCC(=O)N2CCC3(CC2)OCCO3)c2ccc(Cl)cc21           nuclei count                    %          84.4
 2  O=c1[nH]c(=O)n(CCc2ccc(F)cc2)c(O)c1C=NCCCn1ccnc1           nuclei count                    %           110
 3  CC12CCCCC1=[N+]([O-])CN2O (centres undefined)           nuclei count                    %          99.9
 4       O=C(O)Cn1cc(C(=O)c2ccccc2)c2ccccc21           nuclei count                    %          89.2
 5        CN(C)CCc1nc2ccccc2c(=O)n1-c1ccccc1           nuclei count                    %          96.8
 6   CCCCNC(=O)c1c(N)n(CCCOC)c2nc3ccccc3nc12           nuclei count                    %            95
 7  COc1ccc(C2SCC(=O)Nc3c2c(=O)[nH]n3C2CCCCCC2)cc1OC (centres undefined)           nuclei count                    %          97.9
 8       COc1ccccc1CN1CCN(C(=O)Cc2ccccc2)CC1           nuclei count                    %           101
 9  CN1CC[C@@]23CCCC[C@@H]2[C@@H]1Cc1ccc(O)cc13           nuclei count                    %          78.9
10  C#CCN(C)C(C)Cc1ccccc1 (centres undefined)           nuclei count                    %          96.7
11  CCCCn1c(O)c(C(CC)=Nc2cccc(C(=O)O)c2)c(=O)[nH]c1=O           nuclei count                    %          86.6
12  Cc1ccc(C2SCC(=O)Nc3c2c(=O)[nH]n3C2CCOC(C)(C)C2)cc1 (centres undefined)           nuclei count                    %           128
13  O=C(c1cccs1)C1CN2CCC1CC2 (centres undefined)           nuclei count                    %          75.5
14  COc1ccccc1-n1c(O)c(C=NCc2ccc3c(c2)OCO3)c(=O)[nH]c1=O           nuclei count                    %           121

----------
# system: Voltage-gated potassium channel subunit beta-2 (Rattus norvegicus) (UniProt P62483)
# Sequence (P62483 whole entry, looked up): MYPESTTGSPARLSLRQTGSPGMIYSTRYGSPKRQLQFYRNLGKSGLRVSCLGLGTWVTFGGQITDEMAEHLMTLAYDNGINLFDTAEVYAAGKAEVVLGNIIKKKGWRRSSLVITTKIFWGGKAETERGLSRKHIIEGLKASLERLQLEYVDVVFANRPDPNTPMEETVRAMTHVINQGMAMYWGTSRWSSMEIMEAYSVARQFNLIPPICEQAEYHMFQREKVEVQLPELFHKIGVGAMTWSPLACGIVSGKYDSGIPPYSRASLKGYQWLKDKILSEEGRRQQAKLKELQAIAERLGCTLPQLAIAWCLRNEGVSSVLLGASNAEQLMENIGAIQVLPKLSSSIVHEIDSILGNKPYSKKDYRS
# experiment: enhancers of rat Kvbeta2 NADPH turnover – biochemical, NADPH fluorescence, primary screen (AID 623);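 further: fluorescence intensity change per second fitted from 20 to 320 s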
# test.settings: Recombinant KvBeta, NADPH fluorescence decrease slope, 10 min; at 10 µM; stronger effect = lower value
Items are presented alongside their recorded NADPH fluorescence slope.
experimental.endpoint: NADPH fluorescence slope

> print(dat)
                                    compound  assay.result
 1  COc1ccc(OC)c([C@@H](O)[C@H](C)NC(C)(C)C)c1      -5.7e-05
 2  OCC12COC3c4ccccc4C(OC1)N32 (centres undefined)      -4.5e-06
 3  CC1=C(C(=O)N2CCC3(CC2)OCCO3)C2(CCC(C)CC2)OC1=O (centres undefined)      -4.4e-05
 4  O=C(c1ccc2nc(-c3ccco3)c(-c3ccco3)nc2c1)N1CCC2(CC1)OCCO2      -5.1e-06
 5          COc1ccccc1/C=C1/C(=N/O)C2CCN1CC2      -1.3e-05
 6     CCc1nc(N2CCNCC2)c(C#N)c2c1CSC(C)(C)C2      -1.6e-05
 7           NC(=O)CSP(=O)(c1ccccc1)c1ccccc1      -3.8e-05
 8  CCCC(C)C1C(C#N)=C(N)Oc2c1c(=O)oc1ccccc21 (centres undefined)       2.9e-06
 9     CC(C)C(=O)c1cn(Cc2ccccc2C#N)c2ccccc12       3.6e-05
10  O=C(COc1ccc2ccccc2c1)N1CCN(C2CCN(Cc3ccccc3)CC2)CC1       1.5e-05
11  Cc1cc(N2C(=O)C3CCCN3C2c2cccc(Cl)c2)no1 (centres undefined)      -2.7e-05
12  CC(C)=CCSc1nnc([C@@H](N)Cc2c[nH]c3ccccc23)o1       2.9e-05
13  CC[N+]1(C)CCCC(OC(=O)C(O)(c2ccccc2)c2ccccc2)C1 (centres undefined)      -4.6e-05
14  C/C(Cl)=C/CC1(CN2CCCC2=O)C(=O)NC(=O)NC1=O     -0.000274
15  OC(c1ccc(F)cc1)C(c1ccccc1)N1CCOCC1 (centres undefined)      -3.5e-05
16  Cc1ccc(Cn2c(C)c3cnn(CC(=O)N4CCC5(CC4)OCCO5)c(=O)c3c2C)cc1      -6.2e-05
17  C[C@@]1(CO)[C@H](O)CC[C@@]2(C)[C@H]1CC[C@H]1C[C@@H]3C[C@@]12CC[C@]3(O)CO      -5.6e-05
18  COc1ccc(OC)c(C2=NOC(C(=O)N3CCC4(CC3)OCCO4)C2)c1 (centres undefined)      -6.7e-06
19  COC(=O)c1c(C)n(Cc2ccc3c(c2)OCO3)c2ccc(O)cc12      -1.6e-05

----------
# experiment: blockers of RIG-like receptor reporter activation – cell-based, Sendai virus stimulus, luciferase, 10K MLSCN set, TLR/RLR signaling modifier project, primary screen (AID 602276);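 further: firefly luciferase from ISG56 promoter only with Renilla not read in this screen; 0% = Sendai virus plus DMSO and 100% = medium plus DMSO without virus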
# test.settings: HEK293 RL24 IRF3 luciferase reporter, at 10 µM, stronger effect = higher value
Items are presented alongside their recorded inhibition.
experimental.endpoint: inhibition (%)

> print(dat)
                                    molecule  experimental.endpoint  unit.of.measurement  assay.result
 1  CC(CCc1ccccc1)NC(C)C(O)c1ccc(O)cc1 (configuration not stated)             inhibition                    %         -11.1
 2  CCCC(C)C1C(C#N)=C(N)Oc2c1c(=O)oc1ccccc21 (configuration not stated)             inhibition                    %          7.33
 3          Cc1c2ccncc2c(C)c2c1[nH]c1ccccc12             inhibition                    %          12.8
 4  CCC(=NCC1CCCO1)c1c(O)n(Cc2ccccc2)c(=O)[nH]c1=O (configuration not stated)             inhibition                    %         -5.89
 5  CCN1CCN(C(=O)COc2cc(=O)n(CC)c3ccccc23)CC1             inhibition                    %          3.27
 6  CN(C)[C@@H]1C(=O)C(C(N)=O)=C(O)[C@@]2(O)C(=O)C3=C(O)c4c(O)ccc(Cl)c4[C@@](C)(O)C3C[C@@H]12 (some centres not stated)             inhibition                    %            23
 7     COc1ccc(Cc2nccc3cc(OC)c(OC)cc23)cc1OC             inhibition                    %          -5.8
 8  Cn1c(=O)cc(SCC(=O)N2CCC3(CC2)OCCO3)c2ccc(Cl)cc21             inhibition                    %          32.3
 9  c1ccc2c(c1)OCC(C1=NCCN1)O2 (configuration not stated)             inhibition                    %         -8.86
10  CN(C)[C@@H]1C(=O)C(C(N)=O)=C(O)[C@@]2(O)C(=O)C3=C(O)c4c(O)cccc4[C@@](C)(O)[C@H]3C[C@@H]12             inhibition                    %          10.4
11       COc1ccc(CC2C(=O)NC(=O)NC2=O)c(OC)c1             inhibition                    %         -6.04
12  CC(C)=CCSc1nnc([C@@H](N)Cc2c[nH]c3ccccc23)o1             inhibition                    %          5.87
